# Lookup of reported melting point keyed by entry

                               smiles_input     test_value
0  O=C(O)c1cncc(-c2ccc3c(C(=O)NCC45CC6CC(CC(C6)C4)C5)c(Cl)ccc3n2)c1         247 °C
1  O=C(O)CCNc1ccc2c(C(=O)NCC34CC5CC(CC(C5)C3)C4)c(Cl)ccc2n1  251 to 252 °C
2  O=C(NCC12CC3CC(CC(C3)C1)C2)c1c(Cl)ccc2nc(N3CCC(n4cn[nH]c4=O)CC3)ccc12  294 to 295 °C

# evaluate next
What does the record list as melting point for O=C(O)c1ccccc1-c1ccc2c(C(=O)NCC34CC5CC(CC(C5)C3)C4)c(Cl)ccc2n1 ?
156 to 158 °C

----------
# Lookup of reported melting point keyed by entry

Some compounds with known melting point results, for comparison:
In [3]: df
Out[3]:
                               smiles_input  attribute_measured     test_value
0  O=C(NCC12CC3CC(CC(C3)C1)C2)c1c(Cl)ccc2nc(N3C[C@@H]4[C@H](C3)[C@H]4C(=O)O)ccc12       melting point  175 to 180 °C
1  O=C(O)c1ccc(-c2ccc3c(C(=O)NCC45CC6CC(CC(C6)C4)C5)c(Cl)ccc3n2)cc1       melting point  316 to 317 °C
2  O=C(NCC12CC3CC(CC(C3)C1)C2)c1c(Cl)ccc2nc(CCCCc3nnn[nH]3)ccc12       melting point         221 °C
3  O=C(CC12CC3CC(CC(C3)C1)C2)Nc1c(Cl)ccc2nc(N3CCC(C(=O)O)CC3)ccc12       melting point  240 to 241 °C
4  O=C(NCC12CC3CC(CC(C3)C1)C2)c1c(Cl)ccc2nc(N3CCC(C(=O)O)(c4ccccc4)CC3)ccc12       melting point  235 to 237 °C
5  O=C(NCC12CC3CC(CC(C3)C1)C2)c1c(Cl)ccc2nc(N3CCC(C(=O)O)CC3)ccc12       melting point  231 to 235 °C
6  O=C(O)CC1CCN(c2ccc3c(C(=O)NCC45CC6CC(CC(C6)C4)C5)c(Cl)ccc3n2)CC1       melting point  212 to 214 °C
7  O=C(NCC12CC3CC(CC(C3)C1)C2)c1c(Cl)ccc2nc(N3CCC(O)(C(=O)O)CC3)ccc12       melting point  200 to 204 °C
8  O=C(NCC12CC3CC(CC(C3)C1)C2)c1c(Cl)ccc2nc(N3CC[C@H](NCCc4nnn[nH]4)C3)ccc12       melting point  174 to 177 °C
9  O=C(O)CN1CCN(c2ccc3c(C(=O)NCC45CC6CC(CC(C6)C4)C5)c(Cl)ccc3n2)CC1       melting point  179 to 183 °C

What does the record list as melting point for O=C(NCC12CC3CC(CC(C3)C1)C2)c1c(Cl)ccc2nc(N3CCC[C@@H]3C(=O)O)ccc12 ?
157 to 160 °C

Follow-up entry: O=C(O)CCN[C@H]1CCCN(c2ccc3c(C(=O)NCC45CC6CC(CC(C6)C4)C5)c(Cl)ccc3n2)C1
176 to 189 °C

Follow-up entry: O=C(NCC12CC3CC(CC(C3)C1)C2)c1c(Cl)ccc2nc(N3CCC(C(=O)NO)CC3)ccc12
189 to 196 °C

Follow-up entry: CS(=O)(=O)NC(=O)C1CCN(c2ccc3c(C(=O)NCC45CC6CC(CC(C6)C4)C5)c(Cl)ccc3n2)CC1
170 to 173 °C

Follow-up entry: O=C(NCC12CC3CC(CC(C3)C1)C2)c1c(Cl)ccc2nc(N3CCC[C@@H](C(=O)O)C3)ccc12
257 to 262 °C

----------
- assay-system: P2X7 receptor (Homo sapiens, UniProt Q99572)
- Construct: 200 μl of a suspension of THP-1 cells (2.5×10^6 cells/ml) containing 10^−4M ethidium bromide; endogenous in cells; host or cells: THP-1 cells
- Sequence (Q99572 whole entry): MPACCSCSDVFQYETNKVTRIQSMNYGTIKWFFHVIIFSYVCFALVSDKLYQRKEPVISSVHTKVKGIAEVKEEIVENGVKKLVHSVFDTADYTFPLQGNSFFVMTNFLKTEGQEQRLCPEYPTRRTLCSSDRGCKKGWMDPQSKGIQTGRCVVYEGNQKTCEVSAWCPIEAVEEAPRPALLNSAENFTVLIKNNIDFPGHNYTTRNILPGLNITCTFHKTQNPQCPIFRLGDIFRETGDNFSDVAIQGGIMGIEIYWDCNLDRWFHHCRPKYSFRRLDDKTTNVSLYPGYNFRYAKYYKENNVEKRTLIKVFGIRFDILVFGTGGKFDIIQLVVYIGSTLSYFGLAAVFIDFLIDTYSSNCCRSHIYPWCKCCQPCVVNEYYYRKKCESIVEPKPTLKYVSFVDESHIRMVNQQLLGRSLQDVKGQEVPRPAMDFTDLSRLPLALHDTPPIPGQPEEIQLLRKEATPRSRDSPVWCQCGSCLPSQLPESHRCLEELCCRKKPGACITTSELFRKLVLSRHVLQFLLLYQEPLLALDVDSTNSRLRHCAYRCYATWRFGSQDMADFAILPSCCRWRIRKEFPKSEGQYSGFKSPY
- test-summary: bbATP-induced ethidium bromide uptake in THP-1 cells (P2X7 antagonist activity)
- Type: cell-based
- Source text: Certain compounds such as benzoylbenzoyl adenosine triphosphate (bbATP) are known to be agonists of the P2X7 receptor, effecting the formation of pores in the plasma membrane (Drug Development Research (1996), 37(3), p. 126). Consequently, when the receptor is activated using bbATP in the presence of ethidium bromide (a fluorescent DNA probe), an increase in the fluorescence of intracellular DNA-bound ethidium bromide is observed. […]
attribute-measured: IC50 (µM)
Numeric answer only, unit µM assumed.

>>> df
                               smiles_input  measure_unit  test_value
0  O=C(O)CCN[C@H]1CCCN(c2ccc3c(C(=O)NCC45CC6CC(CC(C6)C4)C5)c(Cl)ccc3n2)C1            µM      0.0158

# evaluate next
What does the record list as IC50 for O=C(NCC12CC3CC(CC(C3)C1)C2)c1c(Cl)ccc2nc(N3CCC[C@@H](C(=O)O)C3)ccc12 ?
0.0794

Taken from patent US20080182874A1.
